# Tested on: A549
# TEST SUMMARY: NCI tumour cell line growth inhibition, 48 h
Active and inactive are the calls of the source. Rule as the data show it: active = GI50 up to about 1.1 µM and inactive = higher.
MEASURE: GI50

Check out these entries, answers already filled in.
COMPOUND | GI50
Cc1ccc(-n2cc(/C(N)=N/O)c3ccccc3c2=O)cc1 | > 100 µM (inactive)
O=C(O)c1ccc(C2C(=O)N[C@@H]3CCC[C@H]23)cc1 (stereo not given in full) | > 100 µM (inactive)
COc1ccc(/C=N/n2c(Cc3ccccc3)n[nH]c2=O)cc1 | > 100 µM (inactive)
CC(=O)NC1C(OCc2ccccc2)OC(CO)C(O)C1OC(C)C(=O)NC(C(=O)NC(CCC(=O)NCCCNc1ccc([N+](=O)[O-])c2[nH]c3ccccc3c(=O)c12)C(N)=O)C(C)C (stereo not given) | > 100 µM (inactive)
O=C(NCCc1ccc(F)cc1)c1cc(/C=C/c2cc(O)ccc2O)ccc1O | 11.1 µM (inactive)
NC(=S)N/N=C1\C(=O)Nc2c(Cl)cc(Cl)cc21 | 31.3 µM (inactive)

Go through the items and report each one's GI50.
1. CO/N=C(/C(=O)OC)c1ccccc1COc1ccccc1C(F)(F)F
2. CCc1cccc(C(C)C)c1NC(=O)CCl
3. COc1ccc(CC/N=C2\CCC(C(=O)NCCc3ccc(OC)c(OC)c3)N2)cc1OC (stereo not given)
4. O=C1C(c2ccc(C3=[N+]([O-])c4cc([N+](=O)[O-])ccc4C3=O)cc2)=[N+]([O-])c2cc([N+](=O)[O-])ccc21

*A*
1: 21.7 µM (inactive); 2: > 100 µM (inactive); 3: > 100 µM (inactive); 4: > 10 µM (inactive)

Source listed as ChEMBL document CHEMBL1201862.
